Where these numbers come from: patent US20180298070A1

Quick reference for IC50 among some binders
Target: T1, human GIPR (human), P48546
T1 chain: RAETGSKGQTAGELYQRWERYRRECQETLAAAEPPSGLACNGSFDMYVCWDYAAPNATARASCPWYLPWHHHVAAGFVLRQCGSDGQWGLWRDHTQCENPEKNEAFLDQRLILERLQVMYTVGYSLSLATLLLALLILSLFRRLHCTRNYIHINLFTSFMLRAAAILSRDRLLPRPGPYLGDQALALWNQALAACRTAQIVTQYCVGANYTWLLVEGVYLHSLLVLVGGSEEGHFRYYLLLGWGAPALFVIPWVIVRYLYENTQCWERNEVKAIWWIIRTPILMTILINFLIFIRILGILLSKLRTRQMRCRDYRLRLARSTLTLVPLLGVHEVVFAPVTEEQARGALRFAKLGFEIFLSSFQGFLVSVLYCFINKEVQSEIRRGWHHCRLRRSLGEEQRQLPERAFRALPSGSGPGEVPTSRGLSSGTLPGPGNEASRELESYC
Experiment: [125I]GIP competition, human GIPR VLP
Starred links: 1 amine or outer side, 2 acyl side, 3 side chain; linkers in the order of their positions; H or OH if unused. Non-standard residues stand in square brackets, D forms with d. Groups on a side chain read outwards from the residue. Primed or numbered codes have the meaning given here. No end group written: not given here. *: point of attachment. C20 diacid = O=C(O)CCCCCCCCCCCCCCCCCCC(=O)*; γGlu = O=C(O)[C@H](CCC(=O)[*:2])N[*:1]; Iva = CC[C@](C)(N)C(=O)O; PEG3′ = not defined here; Aib = CC(C)(N)C(=O)O

binder	unit_tag	IC50
Y[Aib]EGTVVSLYSK([PEG3′-PEG3′-C20 diacid])[Aib]LDRQAQ[Aib]EFVK(Ac)WLLRGGPSSGAPPPS (ends and bridges not checked) [Compound 324]	nM	7.8
Y[Aib]EGTFISDYSIALDRK([PEG(2)-C20 diacid])AQQNFVNW[Iva]LAQRPSSGAPPPS (not fully specified (C-terminus); ends and bridges not checked) [Compound 404]	nM	24
Y[Aib]EGTFISDYSK([PEG(2)-C20 diacid])ALDRIAQQNFVNW[Iva]LAQRPSSGAPPPS (ends and bridges not checked) [Compound 381]	nM	8.7
Y[Aib]EGTFISDYSIAK([PEG(2)-C20 diacid])DRIAQQNFVNW[Iva]LAQRPSSGAPPPS (ends and bridges not checked) [Compound 383]	nM	10
Y[Aib]EGTFISDYSIALDRK([PEG(2)-C20 diacid])AQQNFVNW[Iva]LAQRPSSGAPPPS (ends and bridges not checked) [Compound 385]	nM	15
Y[Aib]EGTVVSLYSK([PEG3′-PEG3′-γGlu-C20 diacid])[Aib]LDRQAQ[Aib]EFVK(Ac)WLLRGGPSSGAPPPS (ends and bridges not checked) [Compound 326]	nM	15
Y[Aib]EGTFISDYSK([PEG(2)-C20 diacid])ALDRIAQQNFVNW[Iva]LAQR (ends and bridges not checked) [Compound 387]	nM	8.2
Y[Aib]EGTFISDYSIALDRK([PEG(2)-C20 diacid])AQQNFVNW[Iva]LAQR (ends and bridges not checked) [Compound 391]	nM	34
